- system: HIV-1 protease (Human immunodeficiency virus type 1 group M subtype B (isolate HXB2) (HIV-1), UniProt P04585)
- test name: Inhibition of HIV proteases (inhibition constants, method of Toth and Marshall)
List of Ki values.
Give a bare numeral; the unit nM is implied.

>  <smiles>
COc1ccc(S(=O)(=O)N(CC(C)C)C[C@@H](O)[C@H](Cc2ccccc2)NC(=O)c2cc(N)cc(C(=O)N(C)Cc3nc(C)oc3C)c2)cc1

>  <Ki / nM>
100

$$$$
>  <smiles>
CCCNC(=O)c1cc(OC)cc(C(=O)N[C@@H](Cc2ccccc2)[C@H](O)CN(CC(C)C)S(=O)(=O)c2ccc(OC)cc2)c1

>  <Ki / nM>
50

$$$$
>  <smiles>
Cc1nc(CN(C)C(=O)c2cccc(C(=O)N[C@@H](Cc3ccccc3)[C@H](O)CN(CC(C)C)S(=O)(=O)c3ccc(N)cc3)c2)c(C)o1

>  <Ki / nM>
2

$$$$
>  <smiles>
CCCN(C)C(=O)c1cc(NC)cc(C(=O)N[C@@H](Cc2ccccc2)[C@H](O)CN(CC(C)C)S(=O)(=O)c2ccc(OC)cc2)c1

>  <Ki / nM>
200

$$$$
>  <smiles>
COc1ccc(S(=O)(=O)N(CC(C)C)C[C@@H](O)[C@H](Cc2ccccc2)NC(=O)c2cc(N)cc(C(=O)N(C)C3CCCCC3)c2)cc1

>  <Ki / nM>
300

$$$$
>  <smiles>
COc1ccc(S(=O)(=O)N(CC(C)C)C[C@@H](O)[C@H](Cc2ccccc2)NC(=O)c2cc(OC)cc(C(=O)N(C)Cc3nc(C)oc3C)c2)cc1

>  <Ki / nM>
1

$$$$
>  <smiles>
COc1ccc(S(=O)(=O)N(CC(C)C)C[C@@H](O)[C@H](Cc2ccccc2)NC(=O)c2cccc(C(=O)N(C)Cc3nc(C)co3)c2)cc1

>  <Ki / nM>
0.6

$$$$
>  <smiles>
COc1ccc(S(=O)(=O)N(CC(C)C)C[C@@H](O)[C@H](Cc2ccccc2)NC(=O)c2ccccc2C(=O)N(C)Cc2nc(C)oc2C)cc1

>  <Ki / nM>
600

$$$$

Okay, next one:
Task: Please indicate Ki recorded for COc1ccc(S(=O)(=O)N(CC(C)C)C[C@@H](O)[C@H](Cc2ccccc2)NC(=O)c2cc(C)cc(C(=O)N(C)Cc3nc(C)oc3C)c2)cc1
Result: 0.2

====

List of log10(Ki) values.
- system: HIV-1 protease (Human immunodeficiency virus type 1 group M subtype B (isolate HXB2) (HIV-1), UniProt P04585)
- test name: Inhibition of HIV proteases (inhibition constants, method of Toth and Marshall)
Kindly note that the scale is log10 and the underlying Ki is in µM.

>  <smiles>
COc1ccc(S(=O)(=O)N(CC(C)C)C[C@@H](O)[C@H](Cc2ccccc2)NC(=O)c2cccc(C(=O)N(C)Cc3oc(C)nc3C)c2)cc1

>  <log10(Ki)>
-3.22

$$$$
>  <smiles>
CCCN(C)C(=O)c1cc(OC)cc(C(=O)N[C@@H](Cc2ccccc2)[C@H](O)CN(CC(C)C)S(=O)(=O)c2ccc(OC)cc2)c1

>  <log10(Ki)>
-1.70

$$$$
>  <smiles>
Cc1coc(CN(C)C(=O)c2cccc(C(=O)N[C@@H](Cc3ccccc3)[C@H](O)CN(CC(C)C)S(=O)(=O)c3ccc(CO)cc3)c2)n1

>  <log10(Ki)>
-3.22

$$$$
>  <smiles>
COc1ccc(S(=O)(=O)N(CC(C)C)C[C@@H](O)[C@H](Cc2ccccc2)NC(=O)c2cc(OC)cc(C(=O)N(C)C3CCCCC3)c2)cc1

>  <log10(Ki)>
-1.40

$$$$
>  <smiles>
CCCN(CCC)C(=O)c1cccc(C(=O)N[C@@H](Cc2ccccc2)[C@H](O)CN2C[C@H]3CCCC[C@H]3C[C@H]2C(=O)NC(C)(C)C)c1

>  <log10(Ki)>
-1.00

$$$$

Task: Please indicate log10(Ki) recorded for CCCN(CCC)C(=O)c1cccc(C(=O)N[C@@H](Cc2ccccc2)[C@H](O)CN(CC(C)C)S(=O)(=O)c2ccc(OC)cc2)c1
Result: -1.70

Task: Please indicate log10(Ki) recorded for CNc1cc(C(=O)N[C@@H](Cc2ccccc2)[C@H](O)CN(CC(C)C)S(=O)(=O)c2ccc(OC)cc2)cc(C(=O)N(C)C2CCCCC2)c1
Result: -0.70

Task: Please indicate log10(Ki) recorded for CCCNC(=O)c1cc(N)cc(C(=O)N[C@@H](Cc2ccccc2)[C@H](O)CN(CC(C)C)S(=O)(=O)c2ccc(OC)cc2)c1
Result: -0.40

Task: Please indicate log10(Ki) recorded for COc1ccc(S(=O)(=O)N(CC(C)C)C[C@@H](O)[C@H](Cc2ccccc2)NC(=O)c2cccc(C(=O)N(C)Cc3csc(C)n3)c2)cc1
Result: -4.00

Task: Please indicate log10(Ki) recorded for COc1ccc(S(=O)(=O)N(CC(C)C)C[C@@H](O)[C@H](Cc2ccccc2)NC(=O)c2cc(C(=O)N(C)C3CCCCC3)cc(N(C)C(=O)OC(C)(C)C)c2)cc1
Result: 0.00

Task: Please indicate log10(Ki) recorded for COc1ccc(S(=O)(=O)N(CC(C)C)C[C@@H](O)[C@H](Cc2ccccc2)NC(=O)c2ccc(C(=O)N(C)Cc3nc(C)oc3C)cc2)cc1
Result: -1.15

Task: Please indicate log10(Ki) recorded for CCCN(C)C(=O)c1cc(C(=O)N[C@@H](Cc2ccccc2)[C@H](O)CN(CC(C)C)S(=O)(=O)c2ccc(OC)cc2)cc(N(C)C(=O)OC(C)(C)C)c1
Result: 0.00

Task: Please indicate log10(Ki) recorded for Cc1nc(CNC(=O)c2cccc(C(=O)N[C@@H](Cc3ccccc3)[C@H](O)CN3C[C@H]4CCCC[C@H]4C[C@H]3C(=O)NC(C)(C)C)c2)c(C)o1
Result: -1.70

====

List of pKi values.
- system: HIV-1 protease (Human immunodeficiency virus type 1 group M subtype B (isolate HXB2) (HIV-1), UniProt P04585)
- test name: Inhibition of HIV proteases (inhibition constants, method of Toth and Marshall)
A value of pKi is the negative decimal logarithm of a concentration given in moles per litre.

Known pKi results, listed for orientation:
>  <smiles>
CCCNC(=O)c1cc(NC)cc(C(=O)N[C@@H](Cc2ccccc2)[C@H](O)CN(CC(C)C)S(=O)(=O)c2ccc(OC)cc2)c1

>  <pKi>
6.52

$$$$
>  <smiles>
CNc1cc(C(=O)N[C@@H](Cc2ccccc2)[C@H](O)CN(CC(C)C)S(=O)(=O)c2ccc(OC)cc2)cc(C(=O)N(C)Cc2nc(C)oc2C)c1

>  <pKi>
8.30

$$$$
>  <smiles>
Cc1nc(CN(C)C(=O)c2cccc(C(=O)N[C@@H](Cc3ccccc3)[C@H](O)CN3C[C@H]4CCCC[C@H]4C[C@H]3C(=O)NC(C)(C)C)c2)c(C)o1

>  <pKi>
8.30

$$$$
>  <smiles>
COCc1coc(CN(C)C(=O)c2cccc(C(=O)N[C@@H](Cc3ccccc3)[C@H](O)CN(CC(C)C)S(=O)(=O)c3ccc(OC)cc3)c2)n1

>  <pKi>
9.52

$$$$
>  <smiles>
COc1ccc(S(=O)(=O)N(CC(C)C)C[C@@H](O)[C@H](Cc2ccccc2)NC(=O)c2cccc(C(=O)N3CCC[C@H]3c3nc(C)cs3)c2)cc1

>  <pKi>
7.52

$$$$

Task: Please indicate pKi recorded for COc1ccc(S(=O)(=O)N(CC(C)C)C[C@@H](O)[C@H](Cc2ccccc2)NC(=O)c2cncc(C(=O)N(C)Cc3nc(C)oc3C)c2)cc1
Result: 8.22
